Hello, the source for this data is patent US12077503B2, in case you need it.

Test system: giant foxtail (Setaria faberii)
Assay: Test A postemergence
Format: in vivo
Conditions: Setaria faberi, post-emergence, 240 h, Postemergence, 31 g ai/ha; visual injury after approx. 10 d; 0 to 100 scale, 0 no effect, 100 complete control; read-out: Plant response rating, Foxtail, Giant
measure name: pest or weed control at 31 g/ha

1) CN1C[C@H](c2cc(C(F)F)cs2)[C@@H](C(=O)Nc2cccc(F)n2)C1=O = 20%
2) CCOc1cc([C@H]2CN(C)C(=O)[C@@H]2C(=O)Nc2cccc(F)c2F)cc(C(F)(F)F)c1 = 80%
3) CON1CC[C@H](c2cccc(C(F)(F)F)c2)[C@@H](C(=O)Nc2ccccc2C(F)(F)F)C1=O = 0%
4) CSc1ccccc1NC(=O)[C@H]1C(=O)N(C)C[C@@H]1c1ccc(C(F)(F)F)cn1 = 0%
5) C=C(C)c1cccc([C@H]2CN(C)C(=O)[C@@H]2C(=O)Nc2cccc(F)c2F)c1 = 0%

----------
Test system: Galium (catchweed bedstraw, Galium aparine)
Assay: Test A postemergence
Format: in vivo
Details: Galium, post-emergence, 240 h, 125 g ai/ha, postemergence; visual injury on 0 to 100 scale (0 no effect, 100 complete control), approx. 10 d; read-out: Galium plant response rating
measure name: pest or weed control at 125 g/ha (%)

1. C=C(C)c1ccc([C@H]2CN(C)C(=O)[C@@H]2C(=O)Nc2cccc(F)c2F)cc1 [Compound 1149] = 50
2. Cc1c(F)cccc1NC(=O)[C@H]1C(=O)NC[C@@H]1c1cc(F)c(F)c(F)c1 [Compound 1125] = 40
3. O=C1NC[C@H](c2ccc3c(c2)CCC3)[C@H]1C(=O)Nc1ccccc1F [Compound 1045] = 40

----------
The entries below are paired with their reported pest or weed control at 125 g/ha.
Tested on: giant foxtail (Setaria faberii)
Experiment: Test A postemergence
Format: in vivo
Conditions: Setaria faberi, post-emergence, 240 h, 125 g ai/ha, postemergence; visual injury on 0 to 100 scale (0 no effect, 100 complete control), approx. 10 d; read-out: Foxtail, Giant plant response rating
measure name: pest or weed control at 125 g/ha (%)

1. CON1CC[C@H](c2ccc(C(F)(F)F)cc2)[C@@H](C(=O)Nc2ccc(F)c(F)c2F)C1=O = 0
2. Cc1ccc([C@H]2CN(C)C(=O)[C@@H]2C(=O)Nc2cnccc2C)cc1 = 0
3. CN1C[C@H](c2ccc(C(F)(F)F)cc2)[C@@H](C(=O)Nc2cnccc2C(F)(F)F)C1=O = 70
4. Cc1cc([C@H]2CNC(=O)[C@@H]2C(=O)Nc2ccccc2F)ccc1C(F)(F)F = 80
5. O=C(Nc1cccc(F)c1F)[C@H]1C(=S)NC[C@@H]1c1ccc(C(F)(F)F)cc1 (racemic) = 60
6. CN1C[C@H](c2csc3c2CCC3)[C@@H](C(=O)Nc2ccc(F)c(F)c2F)C1=O = 80
7. CSc1ccccc1NC(=O)[C@H]1C(=O)NC[C@@H]1c1cc(F)c(F)c(F)c1 = 60

----------
System: barnyardgrass (Echinochloa crus-galli)
Assay: Test A postemergence
Type: in vivo
Settings: Echinochloa crus-galli, post-emergence, 240 h, 125 g ai/ha, postemergence; visual injury on 0 to 100 scale (0 no effect, 100 complete control), approx. 10 d; read-out: Barnyardgrass plant response rating
measure name: pest or weed control at 125 g/ha

1) CN1C[C@H](c2ccc3c(c2)OCO3)[C@@H](C(=O)Nc2cccc(F)c2F)C1=O = 90%
2) CSc1ccccc1NC(=O)[C@H]1C(=O)N(C)C[C@@H]1c1ccc(F)c(Oc2ccccc2)c1 = 30%
3) C=C(C)c1cccc([C@H]2CN(C)C(=O)[C@@H]2C(=O)Nc2cccc(F)c2C)c1 = 90%
4) Cc1ccncc1NC(=O)[C@H]1C(=O)N(C)C[C@@H]1c1ccc(C(F)(F)F)cc1 = 0%
5) CN1C[C@H](c2cc(F)cc(F)c2)[C@@H](C(=O)Nc2ccncc2F)C1=O = 0%
6) CN1C[C@H](c2csc3c2CCC3)[C@@H](C(=O)Nc2ccc(F)c(F)c2F)C1=O = 90%
7) CSc1ccccc1NC(=O)[C@H]1C(=O)N(C)C[C@@H]1c1ccc(C(F)(F)F)cn1 = 0%
8) CN1C[C@H](c2cscn2)[C@@H](C(=O)Nc2ccccc2F)C1=O = 0%
